target: T1, S7ecto-Fc (human siglec7 ectodomain fused with human Fc domain) (human, UniProt Q9Y286 19-353); assay: ELISA
T1 construct: extracellular domain; bought from R&D Systems; not shown: human Fc domain
T1 sequence (Q9Y286 19-353): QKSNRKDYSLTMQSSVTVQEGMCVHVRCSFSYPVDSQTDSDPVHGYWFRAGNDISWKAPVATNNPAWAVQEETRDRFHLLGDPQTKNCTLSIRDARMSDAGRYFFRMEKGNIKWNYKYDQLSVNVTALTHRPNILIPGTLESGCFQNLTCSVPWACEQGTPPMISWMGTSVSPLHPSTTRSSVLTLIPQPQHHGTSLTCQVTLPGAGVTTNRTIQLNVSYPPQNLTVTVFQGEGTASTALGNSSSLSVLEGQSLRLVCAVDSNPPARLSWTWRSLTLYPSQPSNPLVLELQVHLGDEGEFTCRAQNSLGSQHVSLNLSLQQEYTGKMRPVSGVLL
endpoint.name: A450
Enter a number only.

The recorded A450 for S0057 (antibody, V domains shown, human variable domains with mouse constant regions (Trianni mouse hybridoma); also called S0057 whole antibody) VH: QGQLVQSGAEVKKPGASVKVSCKASGYTFNNYGISWVRQAPGQGLEWMGWISAYNGFTRSTQKFQGRVTLTTDTSTSTAHMELRSLRSDDTAAYYCARDGGDGFDPWGQGTLVTVSS VL: EIVLTQSPATLSLSPGERATLSCRASQSVSSFLAWYQQKPGQAPRLLIFDASNRATGIPARFSGSGSGTDFTLTISSLEPEDFAVYYCQQRSNWITFGQGTRLEIKRA is 0.07
